Origin of the recorded values: patent US12507703B2

System: lipase
Assay: Lipase/lipolysis assay (EnzChek Lipase Substrate, quenched BODIPY-fatty acid conjugate) on stored human milk; note: test concentration or dose not given here
Where a SMILES comes first, the peptide text is derived from it.
Entries annotated with measured Lipase (RFU)
Express your answer in RFU, writing the number without its unit.

Worked examples follow.
>>> test_value("NCC(=O)N1CCC[C@H]1C(=O)O [Glycyl-L-Proline] (H-Gly-Pro-OH)")
318.8964
>>> test_value("COc1ccc(-c2cc(=O)c3c(OC)c(OC)c(OC)c(OC)c3o2)cc1")
1254.653
>>> test_value("C[N+]1(C)CCC[C@H]1C(=O)[O-] [Stachydrine]")
1061.585
>>> test_value("Nc1nc2c(ncn2[C@@H]2O[C@@H]3COP(=O)([O-])O[C@H]3[C@H]2O)c(=O)[nH]1.[Na+] [Cyclic GMP (sodium)]")
1109.907
>>> test_value("NC(N)=NCCCC[C@H](N)C(=O)O")
745.4822

INPUT: Endpoint output: Lipase (RFU) of "C[C@H](CCC(=O)NCC(=O)O)[C@H]1CC[C@H]2[C@@H]3CC[C@@H]4C[C@H](O)CC[C@]4(C)[C@H]3CC[C@]12C" . Value?
OUTPUT: 1103.978

INPUT: Endpoint output: Lipase (RFU) of "CC(=O)OC(C)(C)/C=C/C(=O)[C@](C)(O)[C@H]1[C@H](O)C[C@@]2(C)[C@@H]3CC=C4[C@H](C[C@H](O)C(=O)C4(C)C)[C@]3(C)C(=O)C[C@]12C" . Value?
OUTPUT: 789.0588

INPUT: Endpoint output: Lipase (RFU) of "OC[C@H]1O[C@@](CO)(OC[C@@]2(O[C@H]3O[C@H](CO)[C@@H](O)[C@H](O)[C@H]3O)O[C@H](CO)[C@@H](O)[C@@H]2O)[C@@H](O)[C@@H]1O" . Value?
OUTPUT: 1115.168

INPUT: Endpoint output: Lipase (RFU) of CCCCC[C@H](O)/C=C/[C@H]1[C@H](O)CC(=O)[C@@H]1C/C=C\CCCC(=O)O [Prostaglandin E2] . Value?
OUTPUT: 1264.564

###

System: lipase
Assay: Lipase/lipolysis assay (EnzChek Lipase Substrate, quenched BODIPY-fatty acid conjugate) on stored human milk; note: test concentration or dose not given here
We'd kindly ask you to apply these Lipase (RFU) classes: bottom bin = under 900 RFU, middle bin = from 900 RFU up to 1000 RFU, top bin = 1000 RFU and over

Study these solved cases before continuing.
>>> label_value("c1ccc2c(c1)[nH]c1cnccc12")
"middle bin"
>>> label_value("COc1cc2c(cc1O)C[C@H]1c3c(cc(O)c(OC)c3-2)CCN1C")
"middle bin"

INPUT: Consider "O=C(O)[C@@H](O)[C@H](O)C(=O)O" . To which Lipase (RFU) class does it belong?
OUTPUT: bottom bin

INPUT: Consider C[N+](C)(C)CCOP(=O)(O)O [Phosphoryl Choline] . To which Lipase (RFU) class does it belong?
OUTPUT: middle bin

INPUT: Consider CC(C)=CCC[C@](C)(O[C@@H]1O[C@H](CO[C@@H]2OC[C@@H](O)[C@H](O)[C@H]2O)[C@@H](O)[C@H](O)[C@H]1O)[C@H]1CC[C@]2(C)[C@@H]1[C@H](O)C[C@@H]1[C@@]3(C)CC[C@H](O[C@@H]4O[C@H](CO)[C@@H](O)[C@H](O)[C@H]4O[C@@H]4O[C@H](CO)[C@@H](O)[C@H](O)[C@H]4O[C@@H]4OC[C@@H](O)[C@H](O)[C@H]4O)C(C)(C)[C@@H]3CC[C@]12C [Notoginsenoside Fc] . To which Lipase (RFU) class does it belong?
OUTPUT: top bin

INPUT: Consider "CC1=C(O)C(=O)C=C2C1=CC=C1[C@@]2(C)CC[C@@]2(C)[C@@H]3C[C@](C)(C(=O)O)CC[C@]3(C)CC[C@]12C" . To which Lipase (RFU) class does it belong?
OUTPUT: middle bin
